Listed here are compounds together with their documented pIC50.
# MEASUREMENT_TARGET: UniProt Q13574
# Sequence (Q13574 whole entry, looked up): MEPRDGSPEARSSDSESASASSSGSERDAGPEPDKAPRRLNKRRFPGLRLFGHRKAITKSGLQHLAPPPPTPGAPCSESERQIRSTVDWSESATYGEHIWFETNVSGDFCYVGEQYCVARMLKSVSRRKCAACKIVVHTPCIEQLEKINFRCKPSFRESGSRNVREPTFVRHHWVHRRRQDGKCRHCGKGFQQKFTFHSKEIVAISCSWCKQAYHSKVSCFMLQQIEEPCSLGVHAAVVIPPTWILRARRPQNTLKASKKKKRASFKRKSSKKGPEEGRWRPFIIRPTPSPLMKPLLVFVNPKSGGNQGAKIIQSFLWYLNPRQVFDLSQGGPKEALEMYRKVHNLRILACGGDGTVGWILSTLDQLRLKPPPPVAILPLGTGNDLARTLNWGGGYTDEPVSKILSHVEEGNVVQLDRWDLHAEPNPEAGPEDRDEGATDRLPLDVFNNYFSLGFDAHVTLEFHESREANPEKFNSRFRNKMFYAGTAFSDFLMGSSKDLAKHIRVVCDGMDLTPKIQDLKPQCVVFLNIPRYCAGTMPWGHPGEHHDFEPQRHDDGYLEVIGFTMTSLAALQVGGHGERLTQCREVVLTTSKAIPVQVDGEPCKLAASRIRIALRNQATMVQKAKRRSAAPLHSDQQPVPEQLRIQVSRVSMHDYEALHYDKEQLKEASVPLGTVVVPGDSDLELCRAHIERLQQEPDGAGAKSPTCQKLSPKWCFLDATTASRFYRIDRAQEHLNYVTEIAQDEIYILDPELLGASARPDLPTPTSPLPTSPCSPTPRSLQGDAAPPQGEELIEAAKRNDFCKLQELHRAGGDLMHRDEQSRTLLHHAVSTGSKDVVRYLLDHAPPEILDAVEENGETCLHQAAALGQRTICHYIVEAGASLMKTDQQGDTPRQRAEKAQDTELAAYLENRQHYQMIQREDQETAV
# ASSAY_DETAILS: biochemical
# Assay type: biochemical
# TEST_CONTEXT: liposome (LIPGLO) assay; read-out: DGKζ LIPGLO IC50
pIC50: −log10 of the molar value.
MEASUREMENT_LABEL: pIC50

>>> numeric_value("C[C@@H]1CN(c2cc(=O)n(C)c3ccc(C#N)nc23)CC[C@H]1Oc1ccc(C2CCCC2)cc1 (single isomer, unassigned) [Example 101]")
5.17
>>> numeric_value("CC[C@@H]1CN(c2cc(=O)n(C)c3ccc(C#N)nc23)CC[C@H]1Oc1cccc(C(C)C)c1 (single isomer, unassigned) [Example 139]")
5.77
>>> numeric_value("CC(C)Oc1ccc(OC2CCN(c3cc(=O)n(C)c4ccc(C#N)nc34)CC2)nc1")
5.40
